Assay: Area under the curve was measured in monkey after an iv dose of 1 mg/kg
Assay type: ADME, organism-based
Parameters: dose 1 mg/kg, route intravenous
Conditions: cercopithecidae, in vivo
Starred links: 1 amine or outer side, 2 acyl side, 3 side chain; linkers in the order of their positions; H or OH if unused. Positions of bridges follow the written chain, without caps; N, C: chain ends. Non-standard residues stand in square brackets, D forms with d. Residues, ends and D or L forms follow the SMILES beside them. *: point of attachment. pTerphenylCO(4''-OnC5H11) = CCCCCOc1ccc(-c2ccc(-c3ccc(C(=O)*)cc3)cc2)cc1; X1 = NCC(=O)Nc1cc(CC[C@H](N[*:1])C(=O)[*:2])ccc1O; X2 = NC(N)=N[C@H]1CC(C(=O)[*:2])N([*:1])C1; Hyp = O=C(O)[C@@H]1C[C@@H](O)CN1; Orn = NCCC[C@H](N)C(=O)O
assay endpoint: AUC
The answer consists of two parts: a number and, after it, its unit.

Query string: Field request: AUC | item: CCCCCOc1ccc(-c2ccc(-c3ccc(C(=O)N[C@H]4CCCNC(=O)C5C[C@H](N=C(N)N)CN5C(=O)[C@H]([C@@H](C)O)NC(=O)[C@H](CCc5ccc(O)c(NC(=O)CN)c5)NC(=O)[C@@H]5C[C@@H](O)CN5C(=O)[C@H]([C@@H](C)O)NC4=O)cc3)cc2)cc1 (stereo partly specified) ({pTerphenylCO(4''-OnC5H11)}-[Orn]T[Hyp][X1]T[X2]; lactam 1-C)
Result string: 6.55 µg·h/mL

----------
Assay: Plasma clearance for the compound was measured in mouse after an iv dose of 1 mg/kg
Assay type: ADME, organism-based
Parameters: dose 1 mg/kg, route intravenous
Conditions: read-out: Clp (converted)
Starred links: 1 amine or outer side, 2 acyl side, 3 side chain; linkers in the order of their positions; H or OH if unused. Positions of bridges follow the written chain, without caps; N, C: chain ends. Non-standard residues stand in square brackets, D forms with d. Residues, ends and D or L forms follow the SMILES beside them. *: point of attachment. pTerphenylCO(4''-OnC5H11) = CCCCCOc1ccc(-c2ccc(-c3ccc(C(=O)*)cc3)cc2)cc1; X1 = NCC(=O)Nc1cc(CC[C@H](N[*:1])C(=O)[*:2])ccc1O; X2 = NC(N)=N[C@H]1CC(C(=O)[*:2])N([*:1])C1; Hyp = O=C(O)[C@@H]1C[C@@H](O)CN1; Orn = NCCC[C@H](N)C(=O)O
assay endpoint: clearance
State the value, then name its unit.

Query string: Would you kindly share the measured clearance for CCCCCOc1ccc(-c2ccc(-c3ccc(C(=O)N[C@H]4CCCNC(=O)C5C[C@H](N=C(N)N)CN5C(=O)[C@H]([C@@H](C)O)NC(=O)[C@H](CCc5ccc(O)c(NC(=O)CN)c5)NC(=O)[C@@H]5C[C@@H](O)CN5C(=O)[C@H]([C@@H](C)O)NC4=O)cc3)cc2)cc1 (stereo partly specified) ({pTerphenylCO(4''-OnC5H11)}-[Orn]T[Hyp][X1]T[X2]; lactam 1-C) ?
Result string: 1 mL/min/kg

----------
Test: Volume of distribution was measured in dog after an iv dose of 1 mg/kg
Assay type: ADME, organism-based, Canis lupus familiaris
Design: dose 1 mg/kg, route intravenous
Settings: in vivo, read-out: Vv
Starred links: 1 amine or outer side, 2 acyl side, 3 side chain; linkers in the order of their positions; H or OH if unused. Positions of bridges follow the written chain, without caps; N, C: chain ends. Non-standard residues stand in square brackets, D forms with d. Residues, ends and D or L forms follow the SMILES beside them. *: point of attachment. pTerphenylCO(4''-OnC5H11) = CCCCCOc1ccc(-c2ccc(-c3ccc(C(=O)*)cc3)cc2)cc1; X1 = NCC(=O)Nc1cc(CC[C@H](N[*:1])C(=O)[*:2])ccc1O; X2 = NC(N)=N[C@H]1CC(C(=O)[*:2])N([*:1])C1; Hyp = O=C(O)[C@@H]1C[C@@H](O)CN1; Orn = NCCC[C@H](N)C(=O)O
assay endpoint: Vd (L/kg)
Give the value, in units of L/kg, as a plain number.

Query string: Fill blank: measured Vd of the molecule CCCCCOc1ccc(-c2ccc(-c3ccc(C(=O)N[C@H]4CCCNC(=O)C5C[C@H](N=C(N)N)CN5C(=O)[C@H]([C@@H](C)O)NC(=O)[C@H](CCc5ccc(O)c(NC(=O)CN)c5)NC(=O)[C@@H]5C[C@@H](O)CN5C(=O)[C@H]([C@@H](C)O)NC4=O)cc3)cc2)cc1 (stereo partly specified) ({pTerphenylCO(4''-OnC5H11)}-[Orn]T[Hyp][X1]T[X2]; lactam 1-C) is ____.
Result string: 0.6

----------
Tested on: Candida albicans
Test: Antifungal activity against Candida albicans CAF-2
Type: functional
Details: Candida albicans; read-out: MIC
Starred links: 1 amine or outer side, 2 acyl side, 3 side chain; linkers in the order of their positions; H or OH if unused. Positions of bridges follow the written chain, without caps; N, C: chain ends. Non-standard residues stand in square brackets, D forms with d. Residues, ends and D or L forms follow the SMILES beside them. *: point of attachment. hTyr(3-COCH2NH2) = NCC(=O)c1cc(CC[C@H](N)C(=O)O)ccc1O; X5 = CCCCCCCCN1CCN(c2ccc(-c3ccc(C(=O)*)cc3)cc2)CC1; X6 = NCC(=O)[C@H]1C[C@@H](C(=O)[*:2])N([*:1])C1; Orn = NCCC[C@H](N)C(=O)O
assay endpoint: MIC
Answer with the number, then the unit.

Query string: Need MIC of CCCCCCCCN1CCN(c2ccc(-c3ccc(C(=O)N[C@H]4CCCNC(=O)[C@@H]5C[C@H](C(=O)CN)CN5C(=O)[C@H]([C@@H](C)O)NC(=O)[C@H](CCc5ccc(O)c(C(=O)CN)c5)NC(=O)[C@@H]5CCCN5C(=O)[C@H]([C@@H](C)O)NC4=O)cc3)cc2)CC1 (X5-[Orn]TP[hTyr(3-COCH2NH2)]T[X6]; lactam 1-C) , thanks.
Result string: 0.1 µg/mL

----------
Assay: Volume of distribution was measured in mouse after an iv dose of 1 mg/kg
Assay type: ADME, organism-based
Set-up: dose 1 mg/kg, route intravenous
Conditions: in vivo, read-out: Vv
Starred links: 1 amine or outer side, 2 acyl side, 3 side chain; linkers in the order of their positions; H or OH if unused. Positions of bridges follow the written chain, without caps; N, C: chain ends. Non-standard residues stand in square brackets, D forms with d. Residues, ends and D or L forms follow the SMILES beside them. *: point of attachment. pTerphenylCO(4''-OnC5H11) = CCCCCOc1ccc(-c2ccc(-c3ccc(C(=O)*)cc3)cc2)cc1; X1 = NCC(=O)Nc1cc(CC[C@H](N[*:1])C(=O)[*:2])ccc1O; X2 = NC(N)=N[C@H]1CC(C(=O)[*:2])N([*:1])C1; Hyp = O=C(O)[C@@H]1C[C@@H](O)CN1; Orn = NCCC[C@H](N)C(=O)O
assay endpoint: Vd (L/kg)
Give a bare numeral; the unit L/kg is implied.

Query string: Please give the measured Vd for this compound: CCCCCOc1ccc(-c2ccc(-c3ccc(C(=O)N[C@H]4CCCNC(=O)C5C[C@H](N=C(N)N)CN5C(=O)[C@H]([C@@H](C)O)NC(=O)[C@H](CCc5ccc(O)c(NC(=O)CN)c5)NC(=O)[C@@H]5C[C@@H](O)CN5C(=O)[C@H]([C@@H](C)O)NC4=O)cc3)cc2)cc1 (stereo partly specified) ({pTerphenylCO(4''-OnC5H11)}-[Orn]T[Hyp][X1]T[X2]; lactam 1-C)
Result string: 0.4

----------
Test system: Candida albicans
Test: Antifungal activity against Candida albicans ATCC 62376
Assay type: functional
Details: Candida albicans, ATCC 62376; read-out: MIC
Positions of bridges follow the written chain, without caps; N, C: chain ends. Non-standard residues stand in square brackets, D forms with d. Residues, ends and D or L forms follow the SMILES beside them. *: point of attachment. Pro(cis-4-guanidino) = NC(N)=N[C@@H]1CN[C@H](C(=O)O)C1; hTyr(3-COCH2NH2) = NCC(=O)c1cc(CC[C@H](N)C(=O)O)ccc1O; X3 = CCCCCCCCOc1ccc(N2CCN(c3ccc(C(=O)*)cc3)CC2)cc1; X5 = CCCCCCCCN1CCN(c2ccc(-c3ccc(C(=O)*)cc3)cc2)CC1; Pro(4S-NH2) = N[C@@H]1CN[C@H](C(=O)O)C1; Hyp = O=C(O)[C@@H]1C[C@@H](O)CN1; Orn = NCCC[C@H](N)C(=O)O
Below, each of the molecules is paired with its reported MIC value.
Kindly answer with a numeric value in µg/mL, unit omitted.

Below, 2 molecules whose answers are already recorded.
- molecule: "CCCCCCCCOc1ccc(N2CCN(c3ccc(C(=O)N[C@H]4CCCNC(=O)[C@@H]5C[C@H](N)CN5C(=O)[C@H]([C@@H](C)O)NC(=O)[C@H](CCc5ccc(O)c(C(=O)CN)c5)NC(=O)[C@@H]5C[C@@H](O)CN5C(=O)[C@H]([C@@H](C)O)NC4=O)cc3)CC2)cc1 (X3-[Orn]T[Hyp][hTyr(3-COCH2NH2)]T[Pro(4S-NH2)]; lactam 1-C)"
  measurement unit: "µg/mL"
  numeric result: 0.1
- molecule: "CCCCCCCCOc1ccc(N2CCN(c3ccc(C(=O)N[C@H]4CCCNC(=O)[C@@H]5C[C@H](N=C(N)N)CN5C(=O)[C@H]([C@@H](C)O)NC(=O)[C@H](CCc5ccc(O)c(C(=O)CN)c5)NC(=O)[C@@H]5C[C@@H](O)CN5C(=O)[C@H]([C@@H](C)O)NC4=O)cc3)CC2)cc1 (X3-[Orn]T[Hyp][hTyr(3-COCH2NH2)]T[Pro(cis-4-guanidino)]; lactam 1-C)"
  measurement unit: "µg/mL"
  numeric result: 0.78

Turning now to a further molecule:
Query string: Report MIC for CCCCCCCCN1CCN(c2ccc(-c3ccc(C(=O)N[C@H]4CCCNC(=O)[C@@H]5C[C@H](N=C(N)N)CN5C(=O)[C@H]([C@@H](C)O)NC(=O)[C@H](CCc5ccc(O)c(C(=O)CN)c5)NC(=O)[C@@H]5C[C@@H](O)CN5C(=O)[C@H]([C@@H](C)O)NC4=O)cc3)cc2)CC1 (X5-[Orn]T[Hyp][hTyr(3-COCH2NH2)]T[Pro(cis-4-guanidino)]; lactam 1-C) tested on Candida albicans.
Result string: 0.2
